Tested on: HIV-1/TSAO-m^3 T (138-Lys)
Experimental Protocol: Sensitivity of mutant HIV-1 strain in CEM cell cultures
Format: cell-based
Test Settings: Human immunodeficiency virus 1, CCRF-CEM; CEM cells, Table 1; read-out: 50% Effective Concentration
Measured Parameter: EC50 (µg/mL)
Entry rule: numbers only, all in µg/mL.

Just so you know, measured EC50 for CCc1cc(NCc2nc3c(Cl)ccc(Cl)c3o2)c(O)nc1C [Pyridinone L-697,661, reference compound] came out at 0.17

New cases:
Just so you know, measured EC50 for `Cc1occc1C(=S)Nc1ccc(Cl)c(C=NOC(C)(C)C)c1` came out at 0.075

Just so you know, measured EC50 for CC(C)Nc1cccnc1N1CCN(C(=O)c2cc3ccccc3[nH]2)CC1 [BHAP U88204, reference compound] came out at 0.07

Just so you know, measured EC50 for CC(C)=CCN1Cc2cc(Cl)cc3[nH]c(=S)n(c23)C[C@@H]1C [TIBO R82913, reference compound] came out at 0.3

* * *

Test system: HIV-1(IIIB)
Experimental Protocol: Knock-out concentrations: breakthrough of HIV-1(IIIB)-induced cytopathicity in CEM cell cultures
Assay type: cell-based
Test Settings: Human immunodeficiency virus 1, IIIB, CCRF-CEM, 600 h; 0.5 μg/ml, day 25 post infection; read-out: HIV-1-induced cytopathicity in cell culture
Entries and their measured activity at 0.5 µg/mL follow.
Entry rule: numbers only, all in %.

Solved entries:
Just so you know, measured activity at 0.5 µg/mL for CC(C)Nc1cccnc1N1CCN(C(=O)c2cc3ccccc3[nH]2)CC1 [BHAP U88204, reference compound] came out at 87.5

Just so you know, measured activity at 0.5 µg/mL for `Cc1occc1C(=S)Nc1ccc(Cl)c(C(=O)OC2CCCC2)c1` came out at 0

Just so you know, measured activity at 0.5 µg/mL for `Cc1occc1C(=S)Nc1ccc(Cl)c(C(=O)OC2CCCCC2)c1` came out at 0

Just so you know, measured activity at 0.5 µg/mL for `Cc1occc1C(=S)Nc1ccc(Cl)c(C(=O)OCC(C)C)c1` came out at 0

New cases:
Just so you know, measured activity at 0.5 µg/mL for `Cc1occc1C(=S)Nc1ccc(Cl)c(C=NOC(C)(C)C)c1` came out at 0

Just so you know, measured activity at 0.5 µg/mL for `O=C(OC1CCCCC1)c1cc(NC(=S)c2ccsc2)ccc1Cl` came out at 100

* * *

Entries and their measured EC50 follow.
Tested on: HIV-1/V(0.1) 101-Ile + 141-Glu
Experimental Protocol: Sensitivity of mutant HIV-1 strain in CEM cell cultures
Type: cell-based
Test Settings: Table 5
Entry rule: numbers only, all in µg/mL.

Just so you know, measured EC50 for CC(C)Nc1cccnc1N1CCN(C(=O)c2cc3cc(NS(C)(=O)=O)ccc3[nH]2)CC1 [BHAP U90152] came out at 0.10

Just so you know, measured EC50 for Cc1cn([C@@H]2O[C@H](CO[Si](C)(C)C(C)(C)C)[C@@]3(OS(=O)(=O)C=C3N)[C@H]2O[Si](C)(C)C(C)(C)C)c(=O)n(C)c1=O [TSAO-m^3 T] came out at 0.06

Just so you know, measured EC50 for CCOCn1c(Cc2ccccc2)c(C(C)C)c(=O)[nH]c1=O [MKC-442] came out at 0.008

Could you now consider this next compound?
Just so you know, measured EC50 for Cc1ccnc2c1NC(=O)c1cccnc1N2C1CC1 [Nevirapine, reference compound] came out at 0.24
